system.under.test: NACHT, LRR and PYD domains-containing protein 3 (Homo sapiens, UniProt Q96P20)
Sequence (Q96P20 whole entry, the tested form may be a part): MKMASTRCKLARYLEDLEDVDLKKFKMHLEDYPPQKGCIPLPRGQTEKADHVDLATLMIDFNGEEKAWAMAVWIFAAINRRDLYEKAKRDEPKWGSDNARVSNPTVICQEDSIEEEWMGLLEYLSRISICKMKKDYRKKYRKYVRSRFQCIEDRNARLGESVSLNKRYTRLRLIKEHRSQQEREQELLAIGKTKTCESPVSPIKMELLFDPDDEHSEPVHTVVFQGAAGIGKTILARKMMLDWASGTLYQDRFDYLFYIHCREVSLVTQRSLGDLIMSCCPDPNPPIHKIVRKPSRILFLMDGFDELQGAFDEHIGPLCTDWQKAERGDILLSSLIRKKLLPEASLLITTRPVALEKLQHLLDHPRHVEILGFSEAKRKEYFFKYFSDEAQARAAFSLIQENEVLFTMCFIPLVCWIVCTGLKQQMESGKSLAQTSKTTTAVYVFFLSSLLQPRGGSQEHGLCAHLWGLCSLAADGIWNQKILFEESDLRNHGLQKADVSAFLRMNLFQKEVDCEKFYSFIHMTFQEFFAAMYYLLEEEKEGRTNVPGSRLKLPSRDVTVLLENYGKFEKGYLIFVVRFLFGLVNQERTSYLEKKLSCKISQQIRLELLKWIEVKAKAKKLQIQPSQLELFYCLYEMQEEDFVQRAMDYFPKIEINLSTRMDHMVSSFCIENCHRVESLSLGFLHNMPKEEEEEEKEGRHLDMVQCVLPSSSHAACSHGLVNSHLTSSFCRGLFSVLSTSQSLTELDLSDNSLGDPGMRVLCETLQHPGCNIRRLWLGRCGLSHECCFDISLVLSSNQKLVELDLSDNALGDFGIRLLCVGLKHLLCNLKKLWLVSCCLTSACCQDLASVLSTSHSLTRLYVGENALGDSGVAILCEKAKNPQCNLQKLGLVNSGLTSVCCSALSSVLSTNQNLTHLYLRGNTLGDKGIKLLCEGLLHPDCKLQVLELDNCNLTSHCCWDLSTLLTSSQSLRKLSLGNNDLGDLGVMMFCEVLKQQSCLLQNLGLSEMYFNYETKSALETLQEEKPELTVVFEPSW
method.summary: Agonist activity at NLRP3 in human […] cells assessed as induction of LPS-induced IL-1beta secretion by HEK-Blue reporter cell based assay

{"compound": "CCCCCCCCCCCCCCC(CCCCCCCCCCCCCC)C(=O)OC[C@H]1OC(O)[C@H](NC(C)=O)[C@@H](OCC(=O)N[C@@H](CC)C(=O)N[C@H](CCC(=O)O)C(N)=O)[C@@H]1O (stereo partly drawn)", "system.under.test": "NACHT, LRR and PYD domains-containing protein 3 (Homo sapiens, UniProt Q96P20)", "Activity": "Active"}
{"compound": "Nc1ncnc2c1ncn2[C@@H]1O[C@H](COP(=O)(O)OP(=O)(O)OP(=O)(O)O)[C@@H](O)[C@H]1O [ADENOSINE TRIPHOSPHATE]", "system.under.test": "NACHT, LRR and PYD domains-containing protein 3 (Homo sapiens, UniProt Q96P20)", "Activity": "Active"}
{"compound": "CCCCCCCCCCCCCCCCCC(=O)OC[C@H]1OC(O)[C@H](NC(C)=O)[C@@H](OCC(=O)N[C@@H](CC)C(=O)N[C@H](CCC(=O)O)C(N)=O)[C@@H]1O (stereo partly drawn)", "system.under.test": "NACHT, LRR and PYD domains-containing protein 3 (Homo sapiens, UniProt Q96P20)", "Activity": "Active"}

---

Tested on: Oryctolagus cuniculus
method.summary: Toxicity in Chinchilla rabbit assessed as weight loss at 100 nmol/kg, iv using micellar formulation measured up to 2 months post dose
Assay type: organism-based
condition.parameters: in vivo

{"molecule": "CCCCCCCCCCCCCCCCCC(=O)NCCCC[C@H](NC(=O)CC[C@@H](NC(=O)[C@H](CC)NC(=O)CO[C@H]1[C@H](O[C@@H]2O[C@H](CO)[C@@H](O)[C@H](O)[C@H]2NC(C)=O)[C@@H](CO)OC(O)[C@@H]1NC(C)=O)C(N)=O)C(=O)O (some centres not stated)", "system.under.test": "Oryctolagus cuniculus", "Activity": "Non-Toxic"}
{"molecule": "CCCCCCCCCCCCCCC(CCCCCCCCCCCCCC)C(=O)OC[C@H]1OC(O)[C@H](NC(C)=O)[C@@H](OCC(=O)N[C@@H](CC)C(=O)N[C@H](CCC(=O)O)C(N)=O)[C@@H]1O (some centres not stated)", "system.under.test": "Oryctolagus cuniculus", "Activity": "Non-Toxic"}

---

system.under.test: Nucleotide-binding oligomerization domain-containing protein 2 (Homo sapiens) (UniProt Q9HC29)
Sequence (Q9HC29 whole entry, the tested form may be a part): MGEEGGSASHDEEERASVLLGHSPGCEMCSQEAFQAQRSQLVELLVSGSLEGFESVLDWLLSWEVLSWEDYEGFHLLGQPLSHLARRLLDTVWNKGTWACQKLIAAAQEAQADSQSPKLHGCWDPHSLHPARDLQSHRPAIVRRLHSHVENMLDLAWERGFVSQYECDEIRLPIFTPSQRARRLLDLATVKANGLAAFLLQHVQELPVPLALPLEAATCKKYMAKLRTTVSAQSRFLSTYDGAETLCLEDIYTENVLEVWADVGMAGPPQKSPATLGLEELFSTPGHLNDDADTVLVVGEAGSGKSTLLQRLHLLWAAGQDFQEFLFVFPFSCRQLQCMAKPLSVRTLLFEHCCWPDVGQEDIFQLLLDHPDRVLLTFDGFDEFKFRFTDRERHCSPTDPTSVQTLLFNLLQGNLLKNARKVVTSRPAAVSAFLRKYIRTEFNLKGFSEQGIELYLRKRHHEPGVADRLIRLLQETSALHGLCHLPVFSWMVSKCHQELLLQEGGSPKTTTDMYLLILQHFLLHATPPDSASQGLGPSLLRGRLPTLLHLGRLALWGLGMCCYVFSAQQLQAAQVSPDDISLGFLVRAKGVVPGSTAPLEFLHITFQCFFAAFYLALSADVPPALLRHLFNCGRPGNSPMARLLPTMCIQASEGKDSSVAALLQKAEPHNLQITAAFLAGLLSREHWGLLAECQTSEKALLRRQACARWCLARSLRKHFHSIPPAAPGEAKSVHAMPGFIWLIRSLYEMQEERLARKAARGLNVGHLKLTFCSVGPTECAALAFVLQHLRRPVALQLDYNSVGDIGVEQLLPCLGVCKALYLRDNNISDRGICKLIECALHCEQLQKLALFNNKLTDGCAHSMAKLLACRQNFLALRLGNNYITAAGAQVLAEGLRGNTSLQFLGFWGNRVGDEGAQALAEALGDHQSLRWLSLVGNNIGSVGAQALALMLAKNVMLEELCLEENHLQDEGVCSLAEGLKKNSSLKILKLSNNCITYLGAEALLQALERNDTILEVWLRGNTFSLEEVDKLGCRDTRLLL
method.summary: Agonist activity at human NOD2 receptor expressed in mouse Raw-Blue reporter cells at 10 uM after 48 hrs in presence of gefitinib by SEAP reporter gene assay
Assay type: cell-based
Calls of active or inactive are those of the source. The rule behind the calls is not given here.
readout: Activity

Here's what some known entries look like.
{"molecule": "CC(=O)N[C@H]1C(O)O[C@H](CO)[C@@H](O)[C@@H]1O[C@H](C)C(=O)N[C@@H](C)C(=O)N[C@H](CCC(=O)O)C(N)=O (stereo not given in full) [MURAMYL DIPEPTIDE]", "Activity": "inactive"}
{"molecule": "CCCCCCCCCCCCCCC(CCCCCCCCCCCCCC)C(=O)OC[C@H]1OC(O)[C@H](NC(C)=O)[C@@H](OCC(=O)N[C@@H](CC)C(=O)N[C@H](CCC(=O)O)C(N)=O)[C@@H]1O (stereo not given in full)", "Activity": "inactive"}
{"molecule": "CCCCCCCCCCCCCCCCCC(=O)OC[C@H]1OC(O)[C@H](NC(C)=O)[C@@H](O[C@H](C)C(=O)N[C@@H](C)C(=O)N[C@H](CCC(=O)O)C(N)=O)[C@@H]1O (stereo not given in full)", "Activity": "inactive"}
{"molecule": "CCCCCCCCCCCCCCC(CCCCCCCCCCCCCC)C(=O)NCCCC[C@H](NC(=O)CC[C@@H](NC(=O)[C@H](CC)NC(=O)CO[C@H]1[C@H](O[C@@H]2O[C@H](CO)[C@@H](O)[C@H](O)[C@H]2NC(C)=O)[C@@H](CO)OC(O)[C@@H]1NC(C)=O)C(N)=O)C(=O)O (stereo not given in full)", "Activity": "inactive"}

Field Activity (entry CCCCCCCCCCCCCCCCCC(=O)NCCCC[C@H](NC(=O)CC[C@@H](NC(=O)[C@H](CC)NC(=O)CO[C@H]1[C@H](O)[C@@H](CO)OC(O)[C@@H]1NC(C)=O)C(N)=O)C(=O)O (stereo not given in full) ) reads inactive

Form: molecule = CCCCCCCCCCCCCCCCCC(=O)N[C@H]1[C@H](O[C@H]2[C@H](OCC(=O)N[C@@H](CC)C(=O)N[C@H](CCC(=O)O)C(N)=O)[C@@H](NC(C)=O)C(O)O[C@@H]2CO)O[C@H](CO)[C@@H](O)[C@@H]1O (stereo not given in full) ; Activity = inactive

So for CCCCCCCCCCCCCCC(CCCCCCCCCCCCCC)C(=O)NCCCC[C@H](NC(=O)CC[C@@H](NC(=O)[C@H](CC)NC(=O)CO[C@H]1[C@H](O)[C@@H](CO)OC(O)[C@@H]1NC(C)=O)C(N)=O)C(=O)O (stereo not given in full) , the logged Activity turned out to be inactive

The reported Activity of the molecule CCCCCCCCCCCCCCCCCC(=O)NCCCC[C@H](NC(=O)CC[C@@H](NC(=O)[C@H](CC)NC(=O)CO[C@H]1[C@H](O[C@@H]2O[C@H](CO)[C@@H](O)[C@H](O)[C@H]2NC(C)=O)[C@@H](CO)OC(O)[C@@H]1NC(C)=O)C(N)=O)C(=O)O (stereo not given in full) was inactive

Looking up CCCCCCCCCCCCCCCCCC(=O)OC[C@H]1OC(O)[C@H](NC(C)=O)[C@@H](OCC(=O)N[C@@H](CC)C(=O)N[C@H](CCC(=O)O)C(N)=O)[C@@H]1O (stereo not given in full) , I see its Activity listed as inactive

Given item CCCCCCCCCCCCCCC(CCCCCCCCCCCCCC)C(=O)N[C@H]1[C@H](O[C@H]2[C@H](OCC(=O)N[C@@H](CC)C(=O)N[C@H](CCC(=O)O)C(N)=O)[C@@H](NC(C)=O)C(O)O[C@@H]2CO)O[C@H](CO)[C@@H](O)[C@@H]1O (stereo not given in full) , the value recorded as its Activity is inactive

---

system.under.test: Nucleotide-binding oligomerization domain-containing protein 2 (Homo sapiens) (UniProt Q9HC29)
method.summary: Agonist activity at human NOD2 receptor expressed in mouse Raw-Blue reporter cells at 10 uM after 48 hrs by SEAP reporter gene assay
Assay type: cell-based
Activity calls are given as the source filed them. No cut-off for these calls is given here.
API: response.call in active, inactive

Exercise: Answer briefly: the call reported for CCCCCCCCCCCCCCCCCC(=O)NCCCC[C@H](NC(=O)CC[C@@H](NC(=O)[C@H](CC)NC(=O)CO[C@H]1[C@H](O)[C@@H](CO)OC(O)[C@@H]1NC(C)=O)C(N)=O)C(=O)O (stereo not given in full) in this assay.
Key: active

Exercise: Test call, this compound: `C[C@H](N)C(=O)N[C@H](CCC(=O)NC12CC3CC(CC(C3)C1)C2)C(N)=O`
Key: inactive

Exercise: Dear colleague, could you share the recorded outcome for CCCCCCCCCCCCCCCCCC(=O)N[C@H]1[C@H](O[C@H]2[C@H](OCC(=O)N[C@@H](CC)C(=O)N[C@H](CCC(=O)O)C(N)=O)[C@@H](NC(C)=O)C(O)O[C@@H]2CO)O[C@H](CO)[C@@H](O)[C@@H]1O (stereo not given in full) when you have a moment?
Key: active

Exercise: Check the results log: what was the call for CCCCCCCCCCCCCCC(CCCCCCCCCCCCCC)C(=O)NCCCC[C@H](NC(=O)CC[C@@H](NC(=O)[C@H](CC)NC(=O)CO[C@H]1[C@H](O)[C@@H](CO)OC(O)[C@@H]1NC(C)=O)C(N)=O)C(=O)O (stereo not given in full) ?
Key: active

Exercise: Lab log entry: CCCCCCCCCCCCCCC(CCCCCCCCCCCCCC)C(=O)NCCCC[C@H](NC(=O)CC[C@@H](NC(=O)[C@H](CC)NC(=O)CO[C@H]1[C@H](O[C@@H]2O[C@H](CO)[C@@H](O)[C@H](O)[C@H]2NC(C)=O)[C@@H](CO)OC(O)[C@@H]1NC(C)=O)C(N)=O)C(=O)O (stereo not given in full) — outcome as called in the assay?
Key: active

---

system.under.test: Nucleotide-binding oligomerization domain-containing protein 2 (Homo sapiens)
method.summary: Agonist activity at human NOD2 receptor expressed in mouse Raw-Blue reporter cells at 10 uM after 48 hrs by SEAP reporter gene assay
Format: cell-based
Activity calls are given as the source filed them. The rule behind the calls is not given here.
readout: Activity

{"compound": "CCCCCCCCCCCCCCCCCC(=O)OC[C@H]1OC(O)[C@H](NC(C)=O)[C@@H](O[C@H](C)C(=O)N[C@@H](C)C(=O)N[C@H](CCC(=O)O)C(N)=O)[C@@H]1O (stereo partly drawn)", "readout": "Activity", "result": "Active"}
{"compound": "CCCCCCCCCCCCCCCCCC(=O)NCCCC[C@H](NC(=O)CC[C@@H](NC(=O)[C@H](CC)NC(=O)CO[C@H]1[C@H](O[C@@H]2O[C@H](CO)[C@@H](O)[C@H](O)[C@H]2NC(C)=O)[C@@H](CO)OC(O)[C@@H]1NC(C)=O)C(N)=O)C(=O)O (stereo partly drawn)", "readout": "Activity", "result": "Active"}
{"compound": "C[C@H](NC(=O)[C@@H](C)O[C@H]1[C@H](O)[C@@H](CO)OC(O)[C@@H]1NC(=O)CO)C(=O)N[C@H](CCC(=O)O)C(N)=O (stereo partly drawn)", "readout": "Activity", "result": "Active"}
